Tested on: U138-MG human glioma cell
experimentNotes: Cell proliferation analysis (MTT)
Type: cell-based
assayContext: Homo sapiens, 48 h, 10 µM, two days, MTT
readoutKind: inhibition at 10 µM (%)
Please give a number only; it is taken to be in %.

Q: Return the recorded inhibition at 10 µM value; entry: `NNC(=O)COc1ccc2c(c1)CCC(=O)N2`
Ans: 25

Q: Let me know recorded inhibition at 10 µM for `O=C1CCc2cc(OCCOCc3ccccc3)ccc2N1` , thanks.
Ans: 12

Q: State its inhibition at 10 µM for this compound: `O=C1CCc2cc(OCc3cn(CCCN4C(=O)c5ccccc5C4=O)nn3)ccc2N1`
Ans: -6

Q: Please give the documented inhibition at 10 µM of `CC(C)CCn1cc(COc2ccc3c(c2)CCC(=O)N3)nn1`
Ans: 48

Q: Answer with the recorded inhibition at 10 µM of `CC(=O)CCn1cc(COc2ccc3c(c2)CCC(=O)N3)nn1` only.
Ans: -22

Q: Give reported inhibition at 10 µM value for `Cc1ccccc1NC(=O)Oc1ccc2c(c1)CCC(=O)N2`
Ans: 27

Q: Hello, please tell me recorded inhibition at 10 µM for this one: `O=C1CCc2cc(OS(=O)(=O)c3cccc4ccccc34)ccc2N1`
Ans: 30

Q: Return inhibition at 10 µM (reported value) for this compound: `O=C1CCc2cc(OC(=O)Nc3ccc(F)cc3)ccc2N1`
Ans: 9

Q: Give inhibition at 10 µM for the following compound: `O=C1CCc2cc(OC(=O)Nc3cccc4ccccc34)ccc2N1`
Ans: 20

Q: Could you please provide reported inhibition at 10 µM for `CC(C)CCOc1ccc2c(c1)CCC(=O)N2` ? Thanks!
Ans: 48

Q: Give the measured inhibition at 10 µM for `O=C1CCc2cc(OCCCCc3nnnn3C3CCCCC3)ccc2N1CCCc1ccccc1`
Ans: 35

Q: Tell me measured inhibition at 10 µM for `CC(=O)c1ccc(NC(=O)COc2ccc3c(c2)CCC(=O)N3)cc1` please.
Ans: 22

Q: Using known records, supply inhibition at 10 µM for CC(=O)OCC1OC(n2cc(COc3ccc4c(c3)CCC(=O)N4)nn2)[C@H](OC(C)=O)[C@@H]1OC(C)=O (stereo partly shown)
Ans: 0

Q: Answer with the recorded inhibition at 10 µM for the compound listed here: `O=C1CCc2cc(OC(=O)c3cccc4ccccc34)ccc2N1`
Ans: 40

Q: Identify measured inhibition at 10 µM corresponding to `O=C1CCc2cc(OCCCCc3nnnn3C3CCCCC3)ccc2N1Cc1ccccc1`
Ans: 31

Q: Tell us which inhibition at 10 µM value is on record for `Cc1ccc(CN2C(=O)CCc3cc(OCCCCc4nnnn4C4CCCCC4)ccc32)cc1`
Ans: 17

Q: Specify inhibition at 10 µM for `C=CCOc1ccc2c(c1)CCC(=O)N2` and stop.
Ans: 49

Q: Note inhibition at 10 µM for the compound shown: `O=C1CCc2cc(OS(=O)(=O)c3ccc([N+](=O)[O-])cc3)ccc2N1`
Ans: 24

Q: Please give the documented inhibition at 10 µM of `CCCc1ccc(/C=N/NC(=O)COc2ccc3c(c2)CCC(=O)N3)cc1`
Ans: -6

Q: Name the recorded inhibition at 10 µM of the compound listed here: `C=CC(=O)Oc1ccc2c(c1)CCC(=O)N2`
Ans: 25

Q: Answer with the recorded inhibition at 10 µM of O=C1CCc2cc(OCC3CC(c4ccc(Cl)cc4)=NO3)ccc2N1 (stereo not shown) only.
Ans: 21

Q: Give reported inhibition at 10 µM value for `O=C(COc1ccc2c(c1)CCC(=O)N2)Nc1ccc(Br)cc1`
Ans: -9

Q: For the compound `Cc1[nH]c2ccccc2c1/C=N/NC(=O)COc1ccc2c(c1)CCC(=O)N2` , give its reported inhibition at 10 µM.
Ans: 46

Q: Quote inhibition at 10 µM reported for `O=C(COc1ccc2c(c1)CCC(=O)N2)NN=Cc1cccs1` please.
Ans: 30

Q: Return reported inhibition at 10 µM. Input compound: `O=C1CCc2cc(OCC(=O)N3CCN(c4ccc(C(F)(F)F)cc4)CC3)ccc2N1`
Ans: 45

Q: State its inhibition at 10 µM for this compound: `O=C(COc1ccc2c(c1)CCC(=O)N2)N/N=C1\C(=O)Nc2ccccc21`
Ans: 5

Q: State its inhibition at 10 µM: `O=C1CCc2cc(OC(=O)Nc3ccccc3Cl)ccc2N1`
Ans: 30

Q: Supply measured inhibition at 10 µM of `C=CCOC(=O)COc1ccc2c(c1)CCC(=O)N2` in your reply.
Ans: 0

Q: Complete the entry with inhibition at 10 µM for `CC(C)CCN1C(=O)CCc2cc(OCCCCc3nnnn3C3CCCCC3)ccc21`
Ans: 24

Q: Input `O=C(COc1ccc2c(c1)CCC(=O)N2)N/N=C/c1ccc([N+](=O)[O-])cc1` , output reported inhibition at 10 µM.
Ans: 8

Q: Return the recorded inhibition at 10 µM value; entry: `CCCn1cc(COc2ccc3c(c2)CCC(=O)N3)nn1`
Ans: 11

* * *

Kindly state Cell Proliferation (%) for each of the entries shown.
Tested on: U87-MG human glioma cell
experimentNotes: Cell proliferation analysis (MTT)
Assay type: cell-based
assayContext: 10 µM, two days, MTT
Express your answer in %, writing the number without its unit.

Q: Return reported Cell Proliferation (%). Input compound: O=C1CCc2cc(OCCCCc3nnnn3C3CCCCC3)ccc2N1Cc1ccc(Cl)cc1 [TR-G111]
Ans: 68

Q: // Input: O=C1CCc2cc(OCCOCc3ccccc3)ccc2N1 [TR-G001] . Output its Cell Proliferation (%) only.
Ans: 78

Q: Given the compound O=C1CCc2cc(OCc3cc(-c4ccc(Cl)cc4)no3)ccc2N1 [TR-G084] , write its reported Cell Proliferation (%).
Ans: 65

Q: Tell me measured Cell Proliferation (%) for O=C1CCc2cc(OCCCN3C(=O)c4ccccc4C3=O)ccc2N1 [TR-G049] please.
Ans: 76

* * *

Tested on: U138-MG human glioma cell
experimentNotes: Cell proliferation analysis (MTT)
Assay type: cell-based
assayContext: Homo sapiens, 48 h, 10 µM, two days, MTT
readoutKind: activity at 10 µM (%)
Unit % implied. Number only.

Q: Report activity at 10 µM, nothing else, for this compound: CCCOc1ccc2c(c1)CCC(=O)N2 [TR-G068, 6-propoxy-3,4-dihydroquinolin-2(1H)-one]
Ans: 82

Q: Supply measured activity at 10 µM of `O=C(COc1ccc2c(c1)CCC(=O)N2)N/N=C/c1ccccc1` in your reply.
Ans: 74

Q: Identify measured activity at 10 µM corresponding to `O=C(COc1ccc2c(c1)CCC(=O)N2)N/N=C/c1ccccn1`
Ans: 81

Q: Tell me activity at 10 µM reported for `Nc1ncc(/C=N/NC(=O)COc2ccc3c(c2)CCC(=O)N3)cn1`
Ans: 92

Q: Please list activity at 10 µM recorded for the compound `COc1ccc(S(=O)(=O)Oc2ccc3c(c2)CCC(=O)N3)cc1OC`
Ans: 71

* * *

Test system: U138-MG human glioma cell
experimentNotes: Cell proliferation analysis (MTT)
Format: cell-based
assayContext: Homo sapiens, 48 h, 10 µM, two days, MTT
Experimental: U87-MG and U138-MG human glioma cell, were incubated with 10% fetal bovine serum (FBS) (Gibco, 10500-064), 1% L-glutamine (Gibco, 25030-024), in a humidified incubator with 5% CO2 at 37 °C. […] The cytotoxic effects of the target compounds on U87-MG and U138-MG cell lines were assessed using the MTT (Thiazolyl Blue Tetrazolium Bromide) method. […] Cell proliferation was analysed by measuring the absorbance of dissolved formazan at a wavelength of 570 nm. […]
Mark Fulfilled only when activity at 10 µM stays strictly below 90%. Values equal to the cut-off are Not fulfilled.

Q: # TODO verify activity at 10 µM < 90% strictly for this compound: `O=C1CCc2cc(OCc3cn(CCOCc4ccccc4)nn3)ccc2N1`
Ans: Fulfilled

Q: Determine whether this compound shows activity at 10 µM lower than 90% (ties excluded): O=C1CCc2cc(OCCCCCCOC3CCCCO3)ccc2N1 (stereo not shown)
Ans: Fulfilled

Q: Determine if `CC(C)(C)c1ccc(COc2ccc3c(c2)CCC(=O)N3)cc1` shows activity at 10 µM strictly lower than 90%.
Ans: Fulfilled

Q: Is the reported activity at 10 µM for `O=C1CCc2cc(OC(=O)Nc3cccc4ccccc34)ccc2N1` strictly below 90%?
Ans: Fulfilled

Q: Could you please tell me whether activity at 10 µM recorded for `CN1CCN(c2ccc(NC(=O)COc3ccc4c(c3)CCC(=O)N4)cc2)CC1` is less than 90%?
Ans: Fulfilled

Q: Does `O=C1CCc2cc(OCC(=O)N3CCN(c4ccc(C(F)(F)F)cc4)CC3)ccc2N1` have activity at 10 µM strictly under 90%?
Ans: Fulfilled

Q: Could you please tell me whether activity at 10 µM recorded for `NC(=O)COCCOc1ccc2c(c1)CCC(=O)N2` is less than 90%?
Ans: Not fulfilled

Q: Does this compound meet the criterion activity at 10 µM < 90%? `O=C1CCc2cc(OC(=O)Nc3ccccc3Cl)ccc2N1`
Ans: Fulfilled

Q: activity at 10 µM under 90%? Item: `O=C(COc1ccc2c(c1)CCC(=O)N2)N/N=C/c1cccc2ccccc12`
Ans: Fulfilled

Q: Please let me know if `CC(=O)c1ccc(-n2cc(COc3ccc4c(c3)CCC(=O)N4)nn2)cc1` shows activity at 10 µM below 90%.
Ans: Fulfilled

Q: Lab note: activity at 10 µM threshold 90%. Does this compound come in strictly under it? `O=C(COc1ccc2c(c1)CCC(=O)N2)N/N=C1\C(=O)Nc2ccc([N+](=O)[O-])cc21`
Ans: Fulfilled

Q: Does this compound meet the criterion activity at 10 µM < 90%? `C=Cc1ccc(CN2C(=O)CCc3cc(OCCCCc4nnnn4C4CCCCC4)ccc32)cc1`
Ans: Not fulfilled

Q: Lab log: compare recorded activity at 10 µM with 90%; is it strictly lower for `CN1C(=O)/C(=N\NC(=O)COc2ccc3c(c2)CCC(=O)N3)c2cc(F)ccc21` ?
Ans: Fulfilled

Q: Please let me know if `O=C1CCc2cc(OC(=O)Nc3ccc([N+](=O)[O-])cc3)ccc2N1` shows activity at 10 µM below 90%.
Ans: Fulfilled

Q: Please let me know if `C#CCOc1ccc2c(c1)CCC(=O)N2` shows activity at 10 µM below 90%.
Ans: Fulfilled

Q: activity at 10 µM under 90%? Item: `O=C1CCc2cc(OCc3cn(Cc4ccc(F)cc4)nn3)ccc2N1`
Ans: Fulfilled

Q: Threshold test, activity at 10 µM < 90%: `O=C(COc1ccc2c(c1)CCC(=O)N2)Nc1ccc(N2CCOCC2)cc1`
Ans: Fulfilled

Q: Could you please tell me whether activity at 10 µM recorded for `O=C1CCc2cc(OCCCCc3nnnn3C3CCCCC3)ccc2N1CCCc1ccccc1` is less than 90%?
Ans: Fulfilled

Q: activity at 10 µM strictly < 90% for this compound? `COc1ccccc1NC(=O)Oc1ccc2c(c1)CCC(=O)N2`
Ans: Fulfilled

Q: Confirm or reject: activity at 10 µM of `O=C1CCc2cc(OCc3cn(CCCN4C(=O)c5ccccc5C4=O)nn3)ccc2N1` lies strictly below 90%
Ans: Not fulfilled

Q: Report whether reported activity at 10 µM is lower than 90% (strictly) for `O=C1CCc2cc(OS(=O)(=O)c3ccc(C(F)(F)F)cc3)ccc2N1`
Ans: Not fulfilled

Q: Hi there! Is activity at 10 µM for `O=C(COc1ccc2c(c1)CCC(=O)N2)NN=Cc1ccc(Cl)cc1` below 90%, do you know?
Ans: Fulfilled

Q: activity at 10 µM strictly < 90% for this compound? `CCCc1ccc(/C=N/NC(=O)COc2ccc3c(c2)CCC(=O)N3)cc1`
Ans: Not fulfilled

Q: activity at 10 µM under 90%? Item: O=C1CCc2cc(OCC3CC(c4ccc(Cl)cc4)=NO3)ccc2N1 (stereo not shown)
Ans: Fulfilled

Q: Bench note: check whether `CC(=O)c1ccc(NC(=O)COc2ccc3c(c2)CCC(=O)N3)cc1` shows activity at 10 µM below 90%
Ans: Fulfilled

Q: Input `CC(C)CCOc1ccc2c(c1)CCC(=O)N2` ; condition: activity at 10 µM strictly below 90%. Does it hold?
Ans: Fulfilled
